- System name: Carbonic anhydrase 1 (Homo sapiens, UniProt P00915)
- Sequence (P00915 whole entry): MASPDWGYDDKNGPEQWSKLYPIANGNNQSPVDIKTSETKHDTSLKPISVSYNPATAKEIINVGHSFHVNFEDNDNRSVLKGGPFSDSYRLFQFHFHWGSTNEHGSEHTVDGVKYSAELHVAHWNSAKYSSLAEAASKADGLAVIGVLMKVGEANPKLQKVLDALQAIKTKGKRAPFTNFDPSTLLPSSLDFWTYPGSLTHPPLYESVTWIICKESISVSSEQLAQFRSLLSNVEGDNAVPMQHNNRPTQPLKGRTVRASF
Measurement type: IC50 (µM)

I. CN/C(=C\[N+](=O)[O-])NCCSCc1ccc(CN(C)C)o1
II. CO/N=C(\C(=O)N[C@@H]1C(=O)N2C(C(=O)O)=C(CSc3nc(=O)c(=O)[nH]n3C)CS[C@H]12)c1csc(N)n1
Between I and II , which one shows the larger IC50 value? // return label of chosen record I
